biological target: SEP3Δtet (SEP3 splice variant);AG (AGAMOUS) (Arabidopsis thaliana;Arabidopsis …, UniProt F4I972;P17839 1-237;1-252, del161-174|); assay: EMSA; dimer; EMSA as in the authors' ref. 20 (buffer, salt, pH, temperature not given); Cy5 probes; unpurified wheat germ TnT proteins; settings: protein: ivt;ivt; tags: C-terminal 3xFLAG;C-terminal 5xMyc; copies: 1;1; label: Cy5; blunt
Sequence (P17839 other isoform, or with tags, fused parts or gaps del161-174| | mutant, chain 1 of 2): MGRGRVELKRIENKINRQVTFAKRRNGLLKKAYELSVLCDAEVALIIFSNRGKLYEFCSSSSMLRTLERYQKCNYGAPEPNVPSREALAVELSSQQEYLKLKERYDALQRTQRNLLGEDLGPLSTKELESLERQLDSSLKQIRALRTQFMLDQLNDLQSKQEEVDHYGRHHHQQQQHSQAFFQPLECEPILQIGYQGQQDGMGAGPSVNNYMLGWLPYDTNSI
Sequence (P17839 whole entry, stated change not applied, chain 2 of 2, canonical isoform): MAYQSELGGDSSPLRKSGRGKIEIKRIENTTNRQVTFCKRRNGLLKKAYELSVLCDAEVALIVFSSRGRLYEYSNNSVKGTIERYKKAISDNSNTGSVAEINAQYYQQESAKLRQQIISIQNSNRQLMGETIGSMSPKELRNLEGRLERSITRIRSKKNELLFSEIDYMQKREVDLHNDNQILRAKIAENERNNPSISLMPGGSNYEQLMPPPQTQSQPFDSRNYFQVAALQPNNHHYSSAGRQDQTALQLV
MEASURE_NAME: binding result

KNU WT (dsDNA) DNA 1: GGTAAGAGAAACATAGAAACCTTCCATGTTTGGCAATTTCATCTTGGAACTTGATTCACTCTCTCTTGTCTTCTTTGTGCATCACAAGAACAACAA DNA 2: TTGTTGTTCTTGTGATGCACAAAGAAGACAAGAGAGAGTGAATCAAGTTCCAAGATGAAATTGCCAAACATGGAAGGTTTCTATGTTTCTCTTACC    binds
KNU +5 (96 bp) (dsDNA) DNA 1: AGAGAAACATAGAAACCTTCCATGTTTGGCAATTTCATCTTGGAAGTCAGCTTGATTCACTCTCTCTTGTCTTCTTTGTGCATCACAAGAACAACA DNA 2: TGTTGTTCTTGTGATGCACAAAGAAGACAAGAGAGAGTGAATCAAGCTGACTTCCAAGATGAAATTGCCAAACATGGAAGGTTTCTATGTTTCTCT    binds
